biological target: T1, soluble human CD3 epsilon chain (human, UniProt P07766 23-126); assay: SPR
T1 construct: also called CD3ε
T1 sequence (P07766 23-126 limits assumed): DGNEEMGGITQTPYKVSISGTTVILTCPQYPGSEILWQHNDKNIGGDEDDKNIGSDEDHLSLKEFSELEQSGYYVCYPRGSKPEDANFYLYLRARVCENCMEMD

>  <BINDER>
TR01H082-E22Hh/none-Hi-Kn010G3/L0212-k0 (antibody, V domains shown, one-arm) VH: QVQLVESGGGLVQPGRSLRLSCAASGFTFSNAWMHWVRQAPGKGLEWVAQIKDKSQNYATYYAESVKGRFTISRDDSKNSLYLQMNSLKTEDTAVYYCRYVHYAAGYGVDAWGQGTTVTVSS VL: DIVMTQSPLSLPVTPGEPASISCRPSQSPVHSNRNTYLHWYQQKPGQAPRLLIYKVSNRFSGVPDRFSGSGSGTDFTLKISRVEAEDVGVYYCYQGTQVPYTFGQGTKLEIKR

>  <Kd / nM>
4.75

$$$$
>  <BINDER>
TR01H040-E22Hh/none-Hi-Kn010G3/L0222-k0 (antibody, V domains shown, one-arm) VH: QVQLVESGGGLVQPGRSLRLSCAASGFTFSNAWMHWVRQAPGKGLEWVAQIKDKSQNYATYYAESVKGRFTISRADSKNSIYLQMNSLKTEDTAVYYCRYVHYSASYGVDAWGQGTTVTVSS VL: DIVMTQSPLSLPVTPGEPASISCRSSQSPVHSNRNTYIQWYQQKPGQAPRLLIYKVSNRFSGVPDRFSGSGSGTDFTLKISRVEAEDVGVYYCYQGTQVPYTFGQGTKLEIKR

>  <Kd / nM>
46.5

$$$$
